Test protocol: Solubility of Estriol in water in presence of CD's and Fru-CD's
Assay type: physicochemical
Measurement setup: water without CD, 20° C.
Quantity measured: solubility
Remember to put the unit after the number in your answer.

Fill in the blank: the reported solubility of C[C@]12CC[C@@H]3c4ccc(O)cc4CC[C@H]3[C@@H]1C[C@@H](O)[C@@H]2O [Estriol, reference compound] is ____.
23 µg/mL
